- MEASUREMENT_DESCRIPTION: Drug recovery in urine of healthy human at 1500 mg, iv administered as single dose as 1 hr iv infusion after 24 hrs
- Format: ADME, organism-based
- CONDITION: read-out: Activity
OBSERVED_PROPERTY: dose excreted at 24 h (%)
Entry rule: numbers only, all in %.

Incoming: Please give the measured dose excreted at 24 h for this molecule: Cn1c(N)c(NC(=O)NCCN)c[n+]1CC1=C(C(=O)O)N2C(=O)[C@@H](NC(=O)/C(=N\OC(C)(C)C(=O)[O-])c3nsc(N)n3)[C@H]2SC1 [CEFTOLOZANE]
Outgoing: 93.4

---

- MEASUREMENT_DESCRIPTION: AUC (0 to infinity) in healthy human at 500 mg, iv administered as 1 hr infusion every 8 hrs for 10 days measured on day 10
- Type: ADME, organism-based
- Parameters: dose 500 mg, time infinity, route intravenous
- CONDITION: plasma
OBSERVED_PROPERTY: AUC(0-inf) (ng·h/mL)
Provide the reading as a plain figure in ng·h/mL.

Incoming: Look up AUC(0-inf) for this compound: Cn1c(N)c(NC(=O)NCCN)c[n+]1CC1=C(C(=O)O)N2C(=O)[C@@H](NC(=O)/C(=N\OC(C)(C)C(=O)[O-])c3nsc(N)n3)[C@H]2SC1 [CEFTOLOZANE]
Outgoing: 82900

---

- MEASUREMENT_DESCRIPTION: Clearance in healthy human at 2000 mg, iv administered as single dose as 1 hr iv infusion
- Assay type: ADME, organism-based
- CONDITION: in vivo
OBSERVED_PROPERTY: clearance
Answer format: value, then unit.

Incoming: // query clearance value for entry `Cn1c(N)c(NC(=O)NCCN)c[n+]1CC1=C(C(=O)O)N2C(=O)[C@@H](NC(=O)/C(=N\OC(C)(C)C(=O)[O-])c3nsc(N)n3)[C@H]2SC1`
Outgoing: 96.9 mL/min

---

- MEASUREMENT_DESCRIPTION: Cmax in healthy human at 1500 mg, iv administered as 1 hr infusion every 12 hrs for 10 days measured on day 10
- Assay type: ADME, organism-based
- Design: dose 1500 mg, route intravenous
- CONDITION: in vivo
OBSERVED_PROPERTY: Cmax (µg/mL)
Write the number in µg/mL without appending the unit.

Incoming: Query: Cmax; subject: Cn1c(N)c(NC(=O)NCCN)c[n+]1CC1=C(C(=O)O)N2C(=O)[C@@H](NC(=O)/C(=N\OC(C)(C)C(=O)[O-])c3nsc(N)n3)[C@H]2SC1 [CEFTOLOZANE]
Outgoing: 82.6

---

- MEASUREMENT_DESCRIPTION: Drug recovery in urine of healthy human at 500 mg, iv administered as 1 hr infusion every 8 hrs for 10 days measured on day 10
- Assay type: ADME, organism-based
- CONDITION: read-out: Activity
OBSERVED_PROPERTY: dose excreted at 10 day
Remember to quote the unit after the number.

Incoming: What does the record list as dose excreted at 10 day for Cn1c(N)c(NC(=O)NCCN)c[n+]1CC1=C(C(=O)O)N2C(=O)[C@@H](NC(=O)/C(=N\OC(C)(C)C(=O)[O-])c3nsc(N)n3)[C@H]2SC1 [CEFTOLOZANE] ?
Outgoing: 84.6%

---

- MEASUREMENT_DESCRIPTION: Half-life in plasma of healthy human 1500 mg administered as single ascending dose, iv for 1 hr infusion
- Format: ADME, organism-based
OBSERVED_PROPERTY: half-life (h)
Please state the figure in h; there is no need to write the unit.

Incoming: Bench note: what half-life did `Cn1c(N)c(NC(=O)NCCN)c[n+]1CC1=C(C(=O)O)N2C(=O)[C@@H](NC(=O)/C(=N\OC(C)(C)C(=O)[O-])c3nsc(N)n3)[C@H]2SC1` show?
Outgoing: 2.62

---

- MEASUREMENT_DESCRIPTION: Half-life in plasma of healthy human 1000 mg administered as single ascending dose, iv for 1 hr infusion
- Format: ADME, organism-based
OBSERVED_PROPERTY: half-life (h)
Respond with the bare value in h.

Incoming: Would you mind telling me what half-life value was observed for `Cn1c(N)c(NC(=O)NCCN)c[n+]1CC1=C(C(=O)O)N2C(=O)[C@@H](NC(=O)/C(=N\OC(C)(C)C(=O)[O-])c3nsc(N)n3)[C@H]2SC1` ?
Outgoing: 2.25

---

- MEASUREMENT_DESCRIPTION: Renal clearance in healthy human at 1500 mg, iv administered as 1 hr infusion every 12 hrs for 10 days measured on day 10
- Assay type: ADME, organism-based, Kidney
- CONDITION: in vivo, read-out: CL_renal
OBSERVED_PROPERTY: CL renal (mL/min)
The figure you give is taken to be in mL/min; do not add the unit.

Incoming: // returns reported CL renal for input `Cn1c(N)c(NC(=O)NCCN)c[n+]1CC1=C(C(=O)O)N2C(=O)[C@@H](NC(=O)/C(=N\OC(C)(C)C(=O)[O-])c3nsc(N)n3)[C@H]2SC1`
Outgoing: 127

---

- MEASUREMENT_DESCRIPTION: Volume of distribution at steady state in healthy human at 1500 mg, iv administered as 1 hr infusion every 12 hrs for 10 days measured on day 1
- Type: ADME, organism-based
- CONDITION: in vivo
OBSERVED_PROPERTY: Vd
Field note: include the unit after the figure.

Incoming: Can you share its Vd? I mean this compound: `Cn1c(N)c(NC(=O)NCCN)c[n+]1CC1=C(C(=O)O)N2C(=O)[C@@H](NC(=O)/C(=N\OC(C)(C)C(=O)[O-])c3nsc(N)n3)[C@H]2SC1`
Outgoing: 18.1 L

---

- MEASUREMENT_DESCRIPTION: Renal clearance in healthy human at 1500 mg, iv administered as 1 hr infusion every 12 hrs for 10 days measured on day 1
- Type: ADME, organism-based, Kidney
- CONDITION: in vivo, read-out: CL_renal
OBSERVED_PROPERTY: CL renal
Param answer (str): number followed by unit.

Incoming: Can you share its CL renal? I mean this molecule: `Cn1c(N)c(NC(=O)NCCN)c[n+]1CC1=C(C(=O)O)N2C(=O)[C@@H](NC(=O)/C(=N\OC(C)(C)C(=O)[O-])c3nsc(N)n3)[C@H]2SC1`
Outgoing: 119 mL/min

---

- MEASUREMENT_DESCRIPTION: AUC (0 to infinity) in healthy human at 1000 mg, iv administered as 1 hr infusion every 8 hrs for 10 days measured on day 1
- Type: ADME, organism-based
- Parameters: dose 1000 mg, time infinity, route intravenous
- CONDITION: plasma
OBSERVED_PROPERTY: AUC(0-inf) (µg·h/mL)
Number in µg·h/mL, nothing else.

Incoming: Quick one: AUC(0-inf) of `Cn1c(N)c(NC(=O)NCCN)c[n+]1CC1=C(C(=O)O)N2C(=O)[C@@H](NC(=O)/C(=N\OC(C)(C)C(=O)[O-])c3nsc(N)n3)[C@H]2SC1` ?
Outgoing: 149

---

- MEASUREMENT_DESCRIPTION: Mean residence time in healthy human at 500 mg, iv administered as 1 hr infusion every 8 hrs for 10 days measured on day 10
- Type: ADME, organism-based
- CONDITION: in vivo
OBSERVED_PROPERTY: MRT (h)
Field: numeric (h). Do not append units.

Incoming: I would be grateful if you could share the reported MRT for `Cn1c(N)c(NC(=O)NCCN)c[n+]1CC1=C(C(=O)O)N2C(=O)[C@@H](NC(=O)/C(=N\OC(C)(C)C(=O)[O-])c3nsc(N)n3)[C@H]2SC1` .
Outgoing: 2.32

---

- MEASUREMENT_DESCRIPTION: AUC (0 to infinity) in healthy human at 1500 mg, iv administered as 1 hr infusion every 12 hrs for 10 days measured on day 10
- Format: ADME, organism-based
- Set-up: dose 1500 mg, route intravenous, time infinity
- CONDITION: plasma
OBSERVED_PROPERTY: AUC(0-inf) (µg·h/mL)
Expressed in µg·h/mL, but write only the number.

Incoming: Reported AUC(0-inf) for Cn1c(N)c(NC(=O)NCCN)c[n+]1CC1=C(C(=O)O)N2C(=O)[C@@H](NC(=O)/C(=N\OC(C)(C)C(=O)[O-])c3nsc(N)n3)[C@H]2SC1 [CEFTOLOZANE] : what is it?
Outgoing: 207

---

- MEASUREMENT_DESCRIPTION: Mean residence time in healthy human at 1500 mg, iv administered as 1 hr infusion every 12 hrs for 10 days measured on day 10
- Assay type: ADME, organism-based
- CONDITION: in vivo
OBSERVED_PROPERTY: MRT (h)
Field format: number, assumed h, no unit text.

Incoming: Request the reported MRT associated with `Cn1c(N)c(NC(=O)NCCN)c[n+]1CC1=C(C(=O)O)N2C(=O)[C@@H](NC(=O)/C(=N\OC(C)(C)C(=O)[O-])c3nsc(N)n3)[C@H]2SC1`
Outgoing: 2.5
